Please find below pIC50 data on G protein-coupled receptor kinase 5 (Homo sapiens, UniProt P34947) compiled from the literature.
Sequence (P34947 whole entry): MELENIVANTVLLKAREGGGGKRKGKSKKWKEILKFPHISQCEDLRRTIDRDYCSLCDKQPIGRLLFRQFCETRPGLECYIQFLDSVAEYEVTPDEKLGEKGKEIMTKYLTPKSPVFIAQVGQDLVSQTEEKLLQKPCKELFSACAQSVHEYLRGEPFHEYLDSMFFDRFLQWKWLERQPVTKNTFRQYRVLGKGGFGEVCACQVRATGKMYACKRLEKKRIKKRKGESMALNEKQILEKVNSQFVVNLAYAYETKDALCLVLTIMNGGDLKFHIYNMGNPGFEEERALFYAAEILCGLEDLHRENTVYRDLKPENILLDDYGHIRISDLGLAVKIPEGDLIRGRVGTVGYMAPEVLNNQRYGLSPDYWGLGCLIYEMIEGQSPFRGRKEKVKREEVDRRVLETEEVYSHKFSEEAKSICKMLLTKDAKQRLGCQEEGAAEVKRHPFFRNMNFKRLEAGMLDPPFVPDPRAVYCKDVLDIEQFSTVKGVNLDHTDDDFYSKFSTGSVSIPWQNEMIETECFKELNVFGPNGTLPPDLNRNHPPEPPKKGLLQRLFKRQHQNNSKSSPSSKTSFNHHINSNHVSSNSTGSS
One number for each entry, as −log10 of the molar value.

Below are worked cases with known answers.
COc1cccc(Cn2cnc3ccc(-c4cn[nH]c4)cc3c2=O)c1 :: 5.35
CC1=C(C(=O)Nc2ccc3[nH]ncc3c2)C(c2ccc(F)c(C(=O)NCc3c(F)cccc3F)c2)NC(=O)N1 (configuration not stated) :: 5.30

Look up pIC50 for the entries below, preserving their order.
1. CC1=C(C(=O)Nc2ccc3[nH]ncc3c2)C(c2ccc(F)c(C(=O)NCc3nccc4ccccc34)c2)NC(=O)N1 (configuration not stated)
2. Nc1ncc(-c2cnn(C3CCNCC3)c2)cc1-c1nc2ccc(Nc3cc(C(F)(F)F)cc(C(F)(F)F)c3)cc2o1
3. FC(F)(F)CNc1nc(Nc2ccc3cn[nH]c3c2)nc2ccoc12
4. CC1=C(C(=O)Nc2ccc3[nH]ncc3c2)C(c2ccc(F)c(C(=O)NCCc3ccccn3)c2)NC(=O)N1 (configuration not stated)
5. N#Cc1ccnc(Oc2ccc3nc(-c4cc(-c5cnn(C6CCNCC6)c5)cnc4N)oc3c2)c1
6. Nc1ncc(-c2cnn(C3CCNCC3)c2)cc1-c1nc2ccc(N3CCOCC3)cc2o1
7. CC1=C(C(=O)Nc2ccc3[nH]ncc3c2)C(c2ccc(F)c(CC(=O)N3Cc4ccc(C)cc4C3)c2)NC(=O)N1 (configuration not stated)
8. Nc1ncc(-c2cnn(C3CCNCC3)c2)cc1-c1nc2ccc(Oc3ncccn3)cc2o1

Resp:
[5.74, 5.38, 5.09, 5.21, 5.44, 6.09, 5.20, 5.51]

I'm hoping you can list pIC50 for every compound here, please.
1. CC#CCN(CCCC)C(=O)Cc1cc(C2NC(=O)NC(C)=C2C(=O)Nc2ccc3[nH]ncc3c2)ccc1F (configuration not stated)
2. C=CCCNC(=O)c1c(C)[nH]c(/C=C2\C(=O)Nc3ccc(C(=O)N[C@H](C)c4ccccc4)cc32)c1C (mixture of isomers)
3. C#CCN(Cc1ccco1)C(=O)Cc1cc(C2NC(=O)NC(C)=C2C(=O)Nc2ccc3[nH]ncc3c2)ccc1F (configuration not stated)
4. CCC(C)CN(CCO)C(=O)Cc1cc(C2NC(=O)NC(C)=C2C(=O)Nc2ccc3[nH]ncc3c2)ccc1F (configuration not stated)

Resp:
1. 5.62
2. 5.71
3. 5.46
4. 5.03
